Source: patent US11008290B2

Catalogue of compounds with associated MBC
System: VRE (ATCC 700221) planktonic cells and biofilms
Experiment: Calgary Biofilm Device (CBD) MBC/MBEC determination
Format: cell-based, Enterococcus faecium
Conditions: Enterococcus; Table 2; planktonic killing, CBD; first value of cell; read-out: VRE ATCC 700221 MBC
Experimental: Biofilm eradication experiments were performed using the Calgary Biofilm Device to determine MBC/MBEC values for various compounds of interest (Innovotech, product code: 19111). […] The lid was then removed from the challenge plate and MBC/MBEC values were determined using different final assays. […] The MBC values were determined as the concentration giving a lack of visible bacterial growth (e.g., turbidity). […]
measurement_label: MBC

                                   compound  reported_measurement
0  Oc1c(Br)cc(Br)c2ccc(CNc3cccc(Cl)c3)nc12 [HQ-4]                1.5 µM
1  Oc1c(Br)cc(Br)c2ccc(CNc3ccccc3)nc12 [HQ-3]                7.8 µM
2  Cc1c(Br)cc(NCc2ccc3c(Br)cc(Br)c(O)c3n2)cc1Br [HQ-7]                125 µM
3  Oc1c(Br)cc(Br)c2ccc(CNc3cc(Cl)cc(Cl)c3)nc12 [HQ-5]                  2 µM
4  Oc1c(Br)cc(Br)c2ccc(CNc3ccc(Br)cc3)nc12 [HQ-6]                3.9 µM

====

Test system: methicillin-resistant Staphylococcus epidermidis (MRSE; ATCC 35984)
Assay: Minimum inhibitory concentration (MIC) susceptibility assay, broth microdilution
Type: cell-based
Conditions: Staphylococcus epidermidis; Table 3; read-out: MRSE MIC
So basically, if MIC comes in under 0.3 µM it's Yes, and if it's 0.3 µM or more it's No.

                          molecule_smiles  discrete_label
0  Oc1c(Br)cc(Br)c2ccc(CNc3ccc(F)cc3)nc12              No
1        CCCCCNCc1ccc2c(Br)cc(Br)c(O)c2n1              No
2              CCCc1ccc2c(I)cc(I)c(O)c2n1              No
3   Oc1c(Br)cc(Br)c2ccc(CNc3ccccc3Br)nc12             Yes
4       Oc1c(I)cc(I)c2ccc(CNc3ccccc3)nc12              No

====

Test system: human red blood cells
Assay: Hemolysis assay
Assay type: cell-based
Details: human, 1 h, pH 7.2
measurement_label: % Haemolysis at 200 μM (%)

compound	qualifier_symbol	reported_measurement
CCCc1ccc2c(I)cc(I)c(O)c2n1 [A-HQ-4]	≤	1
Oc1c(Br)cc(Br)c2ccc(CNc3cc(Br)ccc3Br)nc12 [RA-HQ-17]	=	7.4
Oc1c(I)cc(I)c2ccc(CNc3ccc(Br)cc3)nc12 [RA-HQ-23]	=	3.3
NC(=O)c1cnccn1 [Pyrazinamide, reference compound]	≤	1
Oc1c(Br)cc(Br)c2ccc(CNc3ccc(Cl)cc3)nc12 [RA-HQ-13]	=	17.6
CC(C)Cc1ccc2c(Br)cc(Br)c(O)c2n1 [A-HQ-5]	=	12.3
CCCCCCCCCC(=O)N[C@@H](Cc1c[nH]c2ccccc12)C(=O)N[C@H](CC(N)=O)C(=O)N[C@@H](CC(=O)O)C(=O)N[C@@H]1C(=O)NCC(=O)N[C@@H](CCCN)C(=O)N[C@@H](CC(=O)O)C(=O)N[C@H](C)C(=O)N[C@@H](CC(=O)O)C(=O)NCC(=O)N[C@H](CO)C(=O)N[C@@H]([C@H](C)CC(=O)O)C(=O)N[C@@H](CC(=O)c2ccccc2N)C(=O)O[C@@H]1C [Daptomycin, reference compound]	=	1.7
Cc1c(Br)cc(NCc2ccc3c(Br)cc(Br)c(O)c3n2)cc1Br [HQ-7]	≤	1
CCCCCNCc1ccc2c(Br)cc(Br)c(O)c2n1 [RA-HQ-2]	=	87.9
Oc1c(Br)cc(Br)c2ccc(CNc3cccc(Br)c3)nc12 [RA-HQ-15]	=	37.3
Oc1c(Br)cc(Br)c2ccc(CNc3ccc(F)cc3)nc12 [RA-HQ-12]	≤	1
CCc1ccc2c(Br)cc(Br)c(O)c2n1 [A-HQ-1]	≤	1
Oc1c(I)cc(I)c2ccc(CNc3ccccc3)nc12 [RA-HQ-22]	=	3.0
Oc1c(Br)cc(Br)c2ccc(CCc3ccc(Br)cc3)nc12 [A-HQ-7]	≤	1
Oc1c(Br)cc(Br)c2ccc(CNc3ccccc3Br)nc12 [RA-HQ-16]	≤	1
Oc1c(Br)cc(Br)c2ccc(CNc3ccc(I)cc3)nc12 [RA-HQ-14]	=	11.0
CCCc1ccc2c(Br)cc(Br)c(O)c2n1 [A-HQ-3]	≤	1
